- Tested on: NCI-H1734
- Assay protocol: relative viability (nuclei count vs DMSO), 5 days (fraction); higher = more cells survive
- Test context: first compound 0.1265 µM
Binary call on relative viability with cut-off 0.7: strictly below means Condition met, and equality or higher means Condition not met.

Data request: I'd appreciate it if you could check whether Clc1ccc(Nc2nnc(Cc3ccncc3)c3ccccc23)cc1 [Vatalanib] + CC(C)C[C@H](NC(=O)[C@H](Cc1ccccc1)NC(=O)c1cnccn1)B(O)O [Bortezomib] (partner 0.002 µM) has relative viability smaller than 0.7.
Data returned: Condition not met

Data request: I'd appreciate it if you could check whether C[C@@H]1CN(CC(=O)Nc2ccc3c(c2)Cc2cccc(-c4cc(=O)cc(N5CCOCC5)o4)c2S3)C[C@H](C)O1 + Nc1nc2[nH]cc(CCc3ccc(C(=O)N[C@@H](CCC(=O)O)C(=O)O)cc3)c2c(=O)[nH]1 [Pemetrexed] (partner 0.2 µM) has relative viability smaller than 0.7.
Data returned: Condition met

Data request: I'd appreciate it if you could check whether COc1cc(N2CCC(C(N)=O)CC2)ccc1Nc1nc(N)c(Cl)c(Nc2ccccc2S(=O)(=O)C(C)C)n1 [HG-5-88-01] + CC(=O)Nc1cccc(-n2c(=O)n(C3CC3)c(=O)c3c(Nc4ccc(I)cc4F)n(C)c(=O)c(C)c32)c1 [Trametinib] (partner 0.02 µM) has relative viability smaller than 0.7.
Data returned: Condition not met

Data request: I'd appreciate it if you could check whether COc1cc(N2CCC(C(N)=O)CC2)ccc1Nc1nc(N)c(Cl)c(Nc2ccccc2S(=O)(=O)C(C)C)n1 [HG-5-88-01] + NC(=O)Nc1cc(-c2cccc(F)c2)sc1C(=O)N[C@H]1CCCNC1 [AZD7762] (partner 0.2 µM) has relative viability smaller than 0.7.
Data returned: Condition met

Data request: I'd appreciate it if you could check whether C[C@@H]1CN(CC(=O)Nc2ccc3c(c2)Cc2cccc(-c4cc(=O)cc(N5CCOCC5)o4)c2S3)C[C@H](C)O1 + CCNC(=O)c1noc(-c2cc(C(C)C)c(O)cc2O)c1-c1ccc(CN2CCOCC2)cc1 [Luminespib] (partner 0.01 µM) has relative viability smaller than 0.7.
Data returned: Condition met

Data request: I'd appreciate it if you could check whether COc1cc(N2CCC(C(N)=O)CC2)ccc1Nc1nc(N)c(Cl)c(Nc2ccccc2S(=O)(=O)C(C)C)n1 [HG-5-88-01] + Cc1nc(Nc2ncc(C(=O)Nc3c(C)cccc3Cl)s2)cc(N2CCN(CCO)CC2)n1 [Dasatinib] (partner 0.075 µM) has relative viability smaller than 0.7.
Data returned: Condition met

----------
- Tested on: NCI-H2405
- Assay protocol: relative viability (nuclei count vs DMSO), 5 days (fraction); higher = more cells survive
- Test context: first compound 0.1265 µM
Measurement name: relative viability
Format: numeric value only, no unit, no commentary.

Use these answered entries as a reference point.
- Compound: "Clc1ccc(Nc2nnc(Cc3ccncc3)c3ccccc23)cc1 [Vatalanib] + C[C@]1(O)C[C@@H](c2nc(-c3ccc4ccc(-c5ccccc5)nc4c3)c3c(N)nccn32)C1 [Linsitinib] (partner 1 µM)"
  relative viability: 0.901
- Compound: "COc1cc(N2CCC(C(N)=O)CC2)ccc1Nc1nc(N)c(Cl)c(Nc2ccccc2S(=O)(=O)C(C)C)n1 [HG-5-88-01] + C[C@]1(O)C[C@@H](c2nc(-c3ccc4ccc(-c5ccccc5)nc4c3)c3c(N)nccn32)C1 [Linsitinib] (partner 1 µM)"
  relative viability: 1.01
- Compound: "COc1cc(N2CCC(C(N)=O)CC2)ccc1Nc1nc(N)c(Cl)c(Nc2ccccc2S(=O)(=O)C(C)C)n1 [HG-5-88-01] + N=C(N)NC(=N)NCCc1ccccc1 [Phenformin] (partner 250 µM)"
  relative viability: 0.484
- Compound: "Clc1ccc(Nc2nnc(Cc3ccncc3)c3ccccc23)cc1 [Vatalanib] + Cc1nc(Nc2ncc(C(=O)Nc3c(C)cccc3Cl)s2)cc(N2CCN(CCO)CC2)n1 [Dasatinib] (partner 0.075 µM)"
  relative viability: 0.195
- Compound: "C[C@@H]1CN(CC(=O)Nc2ccc3c(c2)Cc2cccc(-c4cc(=O)cc(N5CCOCC5)o4)c2S3)C[C@H](C)O1 + CS(=O)(=O)CCNCc1ccc(-c2ccc3ncnc(Nc4ccc(OCc5cccc(F)c5)c(Cl)c4)c3c2)o1 [Lapatinib] (partner 2 µM)"
  relative viability: 1.11
- Compound: "C[C@@H]1CN(CC(=O)Nc2ccc3c(c2)Cc2cccc(-c4cc(=O)cc(N5CCOCC5)o4)c2S3)C[C@H](C)O1 + COc1cc2c(Oc3ccc(NC(=O)C4(C(=O)Nc5ccc(F)cc5)CC4)cc3F)ccnc2cc1OCCCN1CCOCC1 [Foretinib] (partner 0.25 µM)"
  relative viability: 1.08
- Compound: "COc1cc(N2CCC(C(N)=O)CC2)ccc1Nc1nc(N)c(Cl)c(Nc2ccccc2S(=O)(=O)C(C)C)n1 [HG-5-88-01] + CC1(C)CCC(c2ccc(Cl)cc2)=C(CN2CCN(c3ccc(C(=O)NS(=O)(=O)c4ccc(N[C@H](CCN5CCOCC5)CSc5ccccc5)c(S(=O)(=O)C(F)(F)F)c4)cc3)CC2)C1 [Navitoclax] (partner 0.5 µM)"
  relative viability: 1.03

// recorded relative viability for COc1cc(N2CCC(C(N)=O)CC2)ccc1Nc1nc(N)c(Cl)c(Nc2ccccc2S(=O)(=O)C(C)C)n1 [HG-5-88-01] + Nc1ncn([C@H]2C[C@H](O)[C@@H](CO)O2)c(=O)n1 [Decitabine] (partner 2 µM) : 0.754

----------
This section presents molecules with their documented relative viability values.
- System: NCI-H1437
- Assay protocol: relative viability (nuclei count vs DMSO), 5 days (fraction); higher = more cells survive
- Test context: first compound 4 µM
Format: numeric value only, no unit, no commentary.

Use these answered entries as a reference point.
- Molecule: "Clc1ccc(Nc2nnc(Cc3ccncc3)c3ccccc23)cc1 [Vatalanib] + NC(=O)Nc1cc(-c2cccc(F)c2)sc1C(=O)N[C@H]1CCCNC1 [AZD7762] (partner 0.2 µM)"
  Measurement target: "NCI-H1437"
  relative viability: 0.997
- Molecule: "COc1cc(N2CCC(C(N)=O)CC2)ccc1Nc1nc(N)c(Cl)c(Nc2ccccc2S(=O)(=O)C(C)C)n1 [HG-5-88-01] + CS(=O)(=O)CCNCc1ccc(-c2ccc3ncnc(Nc4ccc(OCc5cccc(F)c5)c(Cl)c4)c3c2)o1 [Lapatinib] (partner 2 µM)"
  Measurement target: "NCI-H1437"
  relative viability: 0.454
- Molecule: "COc1cc(N2CCC(C(N)=O)CC2)ccc1Nc1nc(N)c(Cl)c(Nc2ccccc2S(=O)(=O)C(C)C)n1 [HG-5-88-01] + CC1(C)CCC(c2ccc(Cl)cc2)=C(CN2CCN(c3ccc(C(=O)NS(=O)(=O)c4ccc(N[C@H](CCN5CCOCC5)CSc5ccccc5)c(S(=O)(=O)C(F)(F)F)c4)cc3)CC2)C1 [Navitoclax] (partner 0.5 µM)"
  Measurement target: "NCI-H1437"
  relative viability: 1.02
- Molecule: "C[C@@H]1CN(CC(=O)Nc2ccc3c(c2)Cc2cccc(-c4cc(=O)cc(N5CCOCC5)o4)c2S3)C[C@H](C)O1 + CC(C)C[C@H](NC(=O)[C@H](Cc1ccccc1)NC(=O)c1cnccn1)B(O)O [Bortezomib] (partner 0.002 µM)"
  Measurement target: "NCI-H1437"
  relative viability: 0.45
- Molecule: "C[C@@H]1CN(CC(=O)Nc2ccc3c(c2)Cc2cccc(-c4cc(=O)cc(N5CCOCC5)o4)c2S3)C[C@H](C)O1 + O=C(CCCCCCC(=O)Nc1ccccc1)NO [Vorinostat] (partner 1 µM)"
  Measurement target: "NCI-H1437"
  relative viability: 0.609

Alright, here's another molecule for you.
Value sought: relative viability, system NCI-H1437, item COc1cc(N2CCC(C(N)=O)CC2)ccc1Nc1nc(N)c(Cl)c(Nc2ccccc2S(=O)(=O)C(C)C)n1 [HG-5-88-01] + CC(C)C[C@H](NC(=O)[C@H](Cc1ccccc1)NC(=O)c1cnccn1)B(O)O [Bortezomib] (partner 0.002 µM) . Result: 0.263

----------
- Tested on: NCI-H1395
- Assay protocol: relative viability (nuclei count vs DMSO), 5 days (fraction); higher = more cells survive
- Test context: first compound 0.1265 µM
This section presents compounds with their documented relative viability values.
Format: numeric value only, no unit, no commentary.

Value sought: relative viability, system NCI-H1395, item COc1cc(N2CCC(C(N)=O)CC2)ccc1Nc1nc(N)c(Cl)c(Nc2ccccc2S(=O)(=O)C(C)C)n1 [HG-5-88-01] + CC(=O)c1c(C)c2cnc(Nc3ccc(N4CCNCC4)cn3)nc2n(C2CCCC2)c1=O [Palbociclib] (partner 0.5 µM) . Result: 0.754

Value sought: relative viability, system NCI-H1395, item COc1cc(N2CCC(C(N)=O)CC2)ccc1Nc1nc(N)c(Cl)c(Nc2ccccc2S(=O)(=O)C(C)C)n1 [HG-5-88-01] + Nc1nc2[nH]cc(CCc3ccc(C(=O)N[C@@H](CCC(=O)O)C(=O)O)cc3)c2c(=O)[nH]1 [Pemetrexed] (partner 0.2 µM) . Result: 0.923

All figures here come from the supplement of paper PMC10307832.
